# Assay: SAD study: plasma pharmacokinetics after single oral TS-134
# Format: in vivo, human
# Conditions: both, human, plasma, oral, 20 mg, t1/2, mean (CV[%]); SAD Parts A and C; 20 mg fed (n = 3)
Quantity kind: half-life (h)
The figure you give is taken to be in h; do not add the unit.

The recorded half-life for entry N[C@]1(C(=O)O)[C@H]2[C@@H](C[C@@H]1F)[C@@H]2C(=O)O [MGS0008] equals 6.91

----------
# Assay: MAD study: plasma pharmacokinetics after multiple oral dose titration of TS-134
# Assay type: in vivo, human
# Conditions: both, human, plasma, oral, 40 mg, AUC0‐tau, mean (CV[%]), plasma; MAD Day 14, fed; 40 mg (n = 8)
Quantity kind: AUC (ng·h/mL)
The figure you give is taken to be in ng·h/mL; do not add the unit.

The value of AUC measured for the compound N[C@]1(C(=O)O)[C@H]2[C@@H](C[C@@H]1F)[C@@H]2C(=O)O [MGS0008] turned out to be 1640
